Target system: T1, Recombinant human MASP1 enzyme (fragment corresponding to amino acids 297-699, C-terminal His Tag) (human, UniProt P48740 297-699)
T1 sequence: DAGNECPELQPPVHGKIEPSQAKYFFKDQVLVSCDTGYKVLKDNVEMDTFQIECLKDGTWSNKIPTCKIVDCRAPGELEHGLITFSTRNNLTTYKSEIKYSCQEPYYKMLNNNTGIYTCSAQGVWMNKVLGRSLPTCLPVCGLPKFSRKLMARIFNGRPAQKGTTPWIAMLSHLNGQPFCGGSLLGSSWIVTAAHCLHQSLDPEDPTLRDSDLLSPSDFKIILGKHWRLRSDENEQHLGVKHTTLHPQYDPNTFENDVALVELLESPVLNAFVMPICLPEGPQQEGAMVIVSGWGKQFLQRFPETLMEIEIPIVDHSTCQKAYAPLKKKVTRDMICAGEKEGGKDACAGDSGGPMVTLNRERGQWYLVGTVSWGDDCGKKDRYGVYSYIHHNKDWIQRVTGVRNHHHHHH
Assay: cell-based or functional assay
Bridge positions count the residues as written; N and C are the ends. Square brackets hold non-standard residues; d marks the D form. Ends that are not written are not given here. Oic = O=C(O)[C@@H]1C[C@@H]2CCCC[C@@H]2N1; NMeI = CC[C@H](C)[C@H](NC)C(=O)O; Pen = CC(C)(S)[C@H](N)C(=O)O; NMeA = CN[C@@H](C)C(=O)O; Sar = CNCC(=O)O
Items are presented alongside their recorded human MASP1 IC50.
Give a bare numeral; the unit nM is implied.

Example results:
>>> val("[dA]ICSRSLP[Oic]I[Pen]IPD-NH2 (disulfide 3-11) [aIC+SRSLP-(Oic)-I-(Pen)+IPD-NH2]")
6.3
>>> val("[NMeA]ICSRSLP[Oic]I[Pen]IPE-OH (disulfide 3-11; N-terminus assumed; SMILES CC[C@H](C)[C@H](NC(=O)[C@H](C)NC)C(=O)N[C@H]1CSSC(C)(C)[C@@H](C(=O)N[C@H](C(=O)N2CCC[C@H]2C(=O)N[C@@H](CCC(=O)O)C(=O)O)[C@@H](C)CC)NC(=O)[C@H]([C@@H](C)CC)NC(=O)[C@@H]2C[C@@H]3CCCC[C@@H]3N2C(=O)[C@@H]2CCCN2C(=O)[C@H](CC(C)C)NC(=O)[C@H](CO)NC(=O)[C@H](CCCNC(=N)N)NC(=O)[C@H](CO)NC1=O) [((N-Me)A)-IC+SRSLP-(Oic)-I-(Pen)+IPE-OH]")
3.9
>>> val("[Sar]ICSRSLP[Oic]I[Pen]IP-OH (disulfide 3-11; N-terminus assumed; SMILES CC[C@H](C)[C@H](NC(=O)CNC)C(=O)N[C@H]1CSSC(C)(C)[C@@H](C(=O)N[C@H](C(=O)N2CCC[C@H]2C(=O)O)[C@@H](C)CC)NC(=O)[C@H]([C@@H](C)CC)NC(=O)[C@@H]2C[C@@H]3CCCC[C@@H]3N2C(=O)[C@@H]2CCCN2C(=O)[C@H](CC(C)C)NC(=O)[C@H](CO)NC(=O)[C@H](CCCNC(=N)N)NC(=O)[C@H](CO)NC1=O) [((N-Me)G)-IC+SRSLP-(Oic)-I-(Pen)+IP-OH]")
4.2

Task: Indicate its recorded human MASP1 IC50; the binder in question is [Sar]ICSRSLPPICIPD-NH2 (disulfide 3-11; N-terminus assumed; SMILES CC[C@H](C)[C@H](NC(=O)CNC)C(=O)N[C@H]1CSSC[C@@H](C(=O)N[C@H](C(=O)N2CCC[C@H]2C(=O)N[C@@H](CC(=O)O)C(N)=O)[C@@H](C)CC)NC(=O)[C@H]([C@@H](C)CC)NC(=O)[C@@H]2CCCN2C(=O)[C@@H]2CCCN2C(=O)[C@H](CC(C)C)NC(=O)[C@H](CO)NC(=O)[C@H](CCCNC(=N)N)NC(=O)[C@H](CO)NC1=O) [((N-Me)G)-IC+SRSLPPIC+IPD-NH2]
Result: 13

Task: Give human MASP1 IC50 for G[NMeI]CSRSLPPICIPD-NH2 (disulfide 3-11; also: HCl salt) [G-((N-Me)I)-C+SRSLPPIC+IPD-NH2 (HCl salt)]
Result: 5.5
